So I've got a bunch of compounds here, and I need their log10(IC50) values.
Target: Squalene synthase (Rattus norvegicus, UniProt Q02769)
Sequence (Q02769 whole entry): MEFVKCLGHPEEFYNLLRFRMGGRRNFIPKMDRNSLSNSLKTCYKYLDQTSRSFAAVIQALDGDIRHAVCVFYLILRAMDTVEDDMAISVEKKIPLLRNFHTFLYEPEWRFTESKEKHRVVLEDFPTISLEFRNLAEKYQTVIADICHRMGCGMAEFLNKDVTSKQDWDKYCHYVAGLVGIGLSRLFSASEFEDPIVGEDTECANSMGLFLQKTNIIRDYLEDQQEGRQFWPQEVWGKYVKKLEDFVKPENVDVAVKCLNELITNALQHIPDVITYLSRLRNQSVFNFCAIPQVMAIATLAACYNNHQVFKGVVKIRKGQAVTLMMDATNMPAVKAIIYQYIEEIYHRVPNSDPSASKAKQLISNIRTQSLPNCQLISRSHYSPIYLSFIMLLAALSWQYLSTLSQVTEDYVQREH
Record value = log10 of IC50 given in µM.

Bench note: what log10(IC50) did "C1=C(c2ccc(-c3ccccc3)cc2)C2CCN1CC2" show?
-1.74

And what about the compound OC1(c2ccc(-c3ccc(-c4ccccc4)cc3)cc2)CN2CCC1CC2 (stereo not given) ?
-0.43

// repeat for Oc1ccc(-c2ccc(C3(O)CN4CCC3CC4)cc2)cc1 (stereo not given) and report
-0.88

Note, next up: OC1(c2ccc(C3CCCCC3)cc2)CN2CCC1CC2 (stereo not given)
-0.72

Further, for OC1(CCc2ccc(-c3ccccc3)cc2)CN2CCC1CC2 (stereo not given) ?
-2.15

Hey, just so you know, these numbers are from ChEMBL document CHEMBL1129249.
